tested on: PKN1; conditions: concentration: 1 μM, replicates: in singlicate; n = 1;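 note: KINOMEscan kinase panel screen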
Reported Metric: %Inh (%)
Write the number in % without appending the unit.

Below: 5 molecules and their reported %Inh.
Molecule	Target Entity	Reported Metric	Endpoint Value
Cc1ccc(O)cc1Nc1ccnc2ccc(C(C)(C)C)cc12	PKN1	%Inh	0
CC(C)NCC(Cc1ccccc1)NC(=O)c1cc(Br)c(-c2ccnc3[nH]ccc23)s1.Cl.Cl (centres unmarked)	PKN1	%Inh	40
CCOc1nccc(-c2c(-c3ccc(F)cc3)ncn2C2CCNCC2)n1	PKN1	%Inh	6
Cc1nn2c(=O)cc(N3CCO[C@H](C)C3)nc2n1Cc1cccc(Cl)c1Cl	PKN1	%Inh	43
COC(=O)Nc1nc2cc(Oc3ccc(NC(=O)Nc4cccc(SC)c4)cc3)ccc2[nH]1.Cl	PKN1	%Inh	0

Problem: Look at this molecule and give its reported %Inh. CN(C)c1ncnc2nc[nH]c12
Result: 0

Problem: Given the entry CN(C)CCOc1ccc(-c2cc(-c3ccc(Cl)c(O)c3)c(-c3ccncc3)[nH]2)cc1.Cl.Cl , report its measured %Inh.
Result: 39

Problem: Return reported %Inh; argument: CN(c1ccc(F)c(NC(=O)c2cccc(OC(C)(C)C#N)c2Cl)c1)c1ccc2nc(NC(=O)C3CC3)sc2n1
Result: 4

====

Reported %Inh by item:
system: CLK4; settings: concentration: 1 μM, replicates: in singlicate; n = 1
A number alone suffices; assume %.

Molecule	Measurement Units	%Inh
Cl.Cl.NC(CNC(=O)c1cc(Br)c(-c2ccnc3[nH]ccc23)s1)c1ccccc1 (stereo not drawn)	%	91.5
CC(=O)Nc1cn2nc(Oc3cccc(NC(=O)c4cccc(C(F)(F)F)c4)c3)ccc2n1	%	0

Next molecule, %Inh to be filled in.
Problem: Dear colleague, I am looking for the recorded %Inh of the following molecule: Cc1cc(-c2ccnc(Nc3cccc(C#N)c3)n2)cc(C)c1O
Result: 95.8

====

test system: TYK2(JH2domain-pseudokinase); conditions: concentration: 1 μM, replicates: in singlicate; n = 1
Reported Metric: %Inh (%)
API: value field is a number in %; no unit string.

Compound	Measurement Units	%Inh
Nc1ncc(-c2cn[nH]c2)c2scc(-c3ccc4c(c3)CCN4C(=O)Cc3ccccc3)c12 [GSK2593067]	%	16
Cc1ccccc1CC(=O)N1CCc2cc(-c3cn(C)c4ncnc(N)c34)ccc21 [GSK2603346]	%	40
CNc1nccc(-c2ccc3c(N)n[nH]c3c2)n1 [GSK2206003]	%	89
COc1ccc(C2=C(Nc3cccc(O)c3)C(=O)NC2=O)cc1 [SB-390766]	%	46
CN(C)CCOc1ccc(-c2cc(-c3ccc(Cl)c(O)c3)c(-c3ccncc3)[nH]2)cc1.Cl.Cl [SB-684387]	%	18

Problem: // %Inh lookup, key: O=C(Nc1n[nH]c2nc(-c3ccccc3)ccc12)C1CC1 [SB-708999]
Result: 29

Problem: Returns the measured %Inh for the input compound. Input: NCCC(NC(=O)c1cc(Br)c(-c2ccnc3[nH]ccc23)s1)c1ccccc1.O=C(O)C(F)(F)F.O=C(O)C(F)(F)F (stereo not drawn) [GSK1307810]
Result: 7

Problem: GET /values?readout=%Inh&item= CC(=O)Nc1cn2nc(Oc3cccc(NC(=O)c4cccc(C(F)(F)F)c4)c3)ccc2n1
Result: 0

Problem: Using the record for Cc1ccc(NC(=O)c2ccc(Cl)c(Cl)c2)cc1-c1ccc(C(=O)Nc2ccncc2)cc1 [GSK1398460] , report its %Inh.
Result: 0

====

system: CAMK1D; details: concentration: 1 μM, replicates: in singlicate; n = 1
Property: %Inh; scope: individual compounds
Report the value in % with no unit label.

Solved entries:
Input Smiles	%Inh, %
Cc1nn2c(=O)cc(N3CCO[C@H](C)C3)nc2n1Cc1cccc(Cl)c1Cl	9
O=C(Nc1n[nH]c2cc(-c3cccs3)ccc12)C1CC1	6
N#Cc1cnc2cc(-c3cnc(CNCCN4CCOCC4)s3)ccc2c1Nc1ccc(Oc2ccccc2)cc1	12
Cc1ccc(NC(=O)c2ccc(Cl)c(Cl)c2)cc1-c1ccc(C(=O)Nc2ccncc2)cc1	24
CCNC(=O)/C=C/c1n[nH]c2cc(Sc3ccccc3C(=O)NC)ccc12	22

Problem: // query %Inh value for entry Cc1ccc(NC(=O)c2cccc(N3CCCCC3)c2)cc1-c1ccc(C(=O)NCC2CC2)cc1
Result: 11

Problem: Tell me the measured %Inh of Nc1ncc(-c2ccc3nccc(-c4ccncc4)c3c2)cc1S(=O)(=O)N1CCCCC1 , please.
Result: 25

Problem: # get_value(readout='%Inh', item= CN(c1ccc(NC(=O)N2CCN(CCCN3CCOCC3)CC2)cc1)c1ccnc(Nc2ccc(CS(C)(=O)=O)cc2)n1.Cl )
Result: 5

Problem: Please report the recorded %Inh for Cc1ccc(Nc2ccnc(Nc3ccc(C)c(F)c3)n2)cc1O.Cl .
Result: 0

Problem: // query %Inh value for entry Cc1ccc(NC(=O)c2ccnc(N3CCCCC3)c2)cc1-c1ccc(C(=O)NCC2CC2)cc1
Result: 0

Problem: Request the reported %Inh associated with Fc1cc(Cl)ccc1Nc1ccnc2cc(-c3ccc(CN4CCOCC4)o3)ccc12
Result: 0

Problem: Param item = Cn1cc(-c2ccc3c(c2)CCN3C(=O)Cc2cc(F)cc(C(F)(F)F)c2)c2c(N)ncnc21 ; retrieve measured %Inh.
Result: 11

Problem: # query: %Inh of entry CN(c1ccc(F)c(NC(=O)c2cccc(OC(C)(C)C#N)c2Cl)c1)c1ccc2nc(NC(=O)C3CC3)sc2n1
Result: 0

Problem: Which measured %Inh value corresponds to COc1cccc2c(-c3ccncc3)c(-c3ccc(F)cc3)nn12 ?
Result: 0

Problem: What value of measured %Inh is listed for Cc1ccc(O)cc1Nc1ccnc2ccc(C(C)(C)C)cc12 ?
Result: 28

Problem: Given the compound CC(C)c1nc(-c2ccc(F)c(NS(=O)(=O)c3c(F)cccc3F)c2)c(-c2ccnc(Nc3ccc(N4CCOCC4)nc3)n2)s1 , what is its reported %Inh?
Result: 26

Problem: Consider the compound shown here: Cc1ccc(C)c(NC(=O)Nc2ccc(C)c(-c3ccc(C(=O)Nc4ccncc4)cc3)c2)c1 What is its recorded %Inh?
Result: 13

====

tested on: PIK4CB; construct: gene PI4KB; conditions: concentration: 1 μM, replicates: in singlicate; n = 1
Reported Metric: %Inh (%)
Supply the numeric figure in %, leaving out any unit text.

Molecule	%Inh (%)
COc1cccc(-c2nc(-c3ccccc3)[nH]c2-c2ccncc2)c1	13
Nc1ncnc2scc(-c3ccc(NC(=O)Cc4cc(F)ccc4F)cc3)c12.O=C(O)C(F)(F)F	22
COc1cc(Nc2nccc(N3CCC(NC(=O)Nc4ccc5c(c4)OCO5)C3)n2)cc(OC)c1OC (stereo not drawn)	80
COc1cccc(NC(=O)NCCNc2ccnc(Nc3ccc(F)cc3)n2)c1	0

Kindly consider the entry below.
Problem: %Inh lookup needed for Cc1ccc(NC(=O)c2ccnc(N3CCCCC3)c2)cc1-c1ccc(C(=O)NCC2CC2)cc1 , thanks.
Result: 8

====

Overview of recorded %Inh for various molecules
system: FES; conditions: concentration: 1 μM, replicates: in singlicate; n = 1
Provide a numeric answer, followed by its unit.

Use the examples below as a reference point.
Input Smiles	Reported Metric	Endpoint Value
Cc1ccc(NC(=O)c2ccc(Cl)c(Cl)c2)cc1-c1ccc(C(=O)Nc2ccncc2)cc1	%Inh	0%
Cc1cccc(Nc2nc(N[C@H]3CCCC[C@H]3N)ncc2C(N)=O)c1.Cl	%Inh	0%
COC(=O)Nc1nc2ccc(Oc3ccc(NC(=O)Nc4cc(C(F)(F)F)ccc4F)cc3)cc2[nH]1.Cl	%Inh	0%

Problem: Could you share which %Inh value was measured for Fc1cc(Cl)ccc1Nc1ccnc2cc(-c3ccc(CN4CCOCC4)o3)ccc12 ?
Result: 0%

Problem: So what's the measured %Inh for this one? N#CC1(c2cccc(C(=O)Nc3cccc(Oc4ccc5nc(NC(=O)C6CC6)sc5n4)c3)c2)CC1
Result: 0%

Problem: What value of %Inh has been reported for the following molecule? COc1cccc2c(-c3ccncc3)c(-c3ccc(F)cc3)nn12
Result: 1%

Problem: Field request: %Inh | item: CS(=O)(=O)c1cccc(CNc2nc(Nc3ccc4c(c3)CCC(=O)N4)ncc2C(F)(F)F)c1
Result: 12%

Problem: Please give the measured %Inh for this molecule: COc1cccc(C2=C(Nc3cccc(O)c3)C(=O)NC2=O)c1
Result: 2%

====

system: KIT-autoinhibited; conditions: concentration: 1 μM, replicates: in singlicate; n = 1
Reported Metric: %Inh (%)
Provide the reading as a plain figure in %.

Would you please look over these solved cases?
Compound	Target Entity	%Inh (%)
CC(C)(C)c1ccc(C(=O)Nc2cn3cc(-n4ccnc4)ccc3n2)cc1	KIT-autoinhibited	20
COc1cc(Nc2nccc(N3CCC(NS(=O)(=O)c4ccc(NC(C)=O)cc4)CC3)n2)cc(OC)c1OC	KIT-autoinhibited	0
Cc1cc(-c2c(-c3ccc(F)cc3)ncn2CCCN2CCOCC2)nc(N)n1	KIT-autoinhibited	20

Problem: Could you share which %Inh value was measured for COc1cccc2c(-c3ccncc3)c(-c3ccc(F)cc3)nn12 ?
Result: 0

Problem: Recorded %Inh of COc1cccc(-c2nc(-c3ccccc3)[nH]c2-c2ccncc2)c1 , please.
Result: 0

Problem: Can you look up the measured %Inh of CS(=O)(=O)c1cccc(CNc2nc(Nc3ccc4c(c3)CCC(=O)N4)ncc2C(F)(F)F)c1 for me?
Result: 30

Problem: Item CN(c1ccc(NC(=O)N2CCN(CCCN3CCOCC3)CC2)cc1)c1ccnc(Nc2ccc(CS(C)(=O)=O)cc2)n1.Cl has what recorded %Inh?
Result: 0

Problem: Dear colleague, I am looking for the recorded %Inh of the following compound: O=C(O)C(F)(F)F.O=c1[nH]ccc2nc(N[C@@H]3CCNC3)nc(Nc3cc(Cl)cc(Cl)c3)c12
Result: 2

Problem: Give the measured %Inh of Cn1cc(-c2ccc3c(c2)CCN3C(=O)Cc2cc(F)cc(C(F)(F)F)c2)c2c(N)ncnc21 .
Result: 16

Problem: May I ask what %Inh has been recorded for Cl.Cl.NCC(NC(=O)c1cc(-c2cccnc2)c(-c2ccnc3[nH]ccc23)s1)c1ccccc1 (centres unmarked) ?
Result: 0

Problem: // returns reported %Inh for input COc1cc(Nc2ccnc3cc(-c4ccncc4)ccc23)cc(OC)c1OC.Cl
Result: 0
